- Test system: SH-SY5Y cells
- assayText: Cytotoxicity in SH-SY5Y cells (MTT)
- Format: cell-based, human
- measurementContext: MTT, 24 h treatment, 1.25–40 μM
valueType: concentration at which cytotoxicity was shown

{"molecule": "O=C(Cn1cc(C2=C(c3ccc(Cl)cc3Cl)C(=O)NC2=O)c2ccccc21)NCCOCCOCCNc1cccc2c1C(=O)N(C1CCC(=O)NC1=O)C2=O (centres unmarked) [Compound 3]", "result": "higher than 20 μM"}
{"molecule": "Cn1cc(C2=C(c3ccc(Cl)cc3Cl)C(=O)NC2=O)c2ccccc21 [SB-216763, reference compound]", "result": "higher than 20 μM"}
{"molecule": "O=C(Cn1cc(C2=C(c3ccc(Cl)cc3Cl)C(=O)NC2=O)c2ccccc21)NCCCOCCCCOCCCNc1cccc2c1C(=O)N(C1CCC(=O)NC1=O)C2=O (centres unmarked) [Compound 1]", "result": "higher than 20 μM"}
{"molecule": "O=C1CCC(N2C(=O)c3cccc(NCCCOCCCCOCCCNC(=O)c4ccc(Cn5c(=O)sn(-c6cccc7ccccc67)c5=O)cc4)c3C2=O)C(=O)N1 (centres unmarked) [Compound 2]", "result": "≥ 20 µM"}
{"molecule": "O=C1CCC(N2C(=O)c3cccc(NCCOCCOCCNC(=O)c4ccc(Cn5c(=O)sn(-c6cccc7ccccc67)c5=O)cc4)c3C2=O)C(=O)N1 (centres unmarked) [Compound 4]", "result": "higher than 20 μM"}

* * *

- assayText: PAMPA-BBB permeation
- Assay type: in vitro ADME
- measurementContext: PAMPA, pH 7.4; PBS:EtOH (70:30), 2 h 45 min at 25 °C, porcine brain lipid; mean ± SD of two independent experiments; read-out: Pe (experimental data)

{"molecule": "O=C(Cn1cc(C2=C(c3ccc(Cl)cc3Cl)C(=O)NC2=O)c2ccccc21)NCCCOCCCCOCCCNc1cccc2c1C(=O)N(C1CCC(=O)NC1=O)C2=O (stereo not drawn) [Compound 1]", "Papp at 2.75 h, ×10⁻⁶ cm/s": 15.3}
{"molecule": "CCn1cc(C(=O)O)c(=O)c2cc(F)c(N3CCNCC3)cc21 [Norfloxacin, reference compound]", "Papp at 2.75 h, ×10⁻⁶ cm/s": 5.37}
{"molecule": "O=C(Cn1cc(C2=C(c3ccc(Cl)cc3Cl)C(=O)NC2=O)c2ccccc21)NCCOCCOCCNc1cccc2c1C(=O)N(C1CCC(=O)NC1=O)C2=O (stereo not drawn) [Compound 3]", "Papp at 2.75 h, ×10⁻⁶ cm/s": 20.7}

* * *

- assayText: PAMPA-BBB permeation
- Type: in vitro ADME
- measurementContext: PAMPA, pH 7.4; PBS:EtOH (70:30), 2 h 45 min at 25 °C, porcine brain lipid; mean ± SD of two independent experiments; read-out: Pe (experimental data)
Reported values of Papp at 2.75 h for individual entries

{"molecule": "CCn1cc(C(=O)O)c(=O)c2cc(F)c(N3CCNCC3)nc21 [Enoxacin, reference compound]", "displayUnit": "×10⁻⁶ cm/s", "Papp at 2.75 h": 10.3}
{"molecule": "Cn1c(=O)c2c(ncn2C)n(C)c1=O [Caffeine, reference compound]", "displayUnit": "×10⁻⁶ cm/s", "Papp at 2.75 h": 7.29}
{"molecule": "CN1C(C(=O)Nc2ccccn2)=C(O)c2ccccc2S1(=O)=O [Piroxicam, reference compound]", "displayUnit": "×10⁻⁶ cm/s", "Papp at 2.75 h": 12.8}
{"molecule": "CN(C)CCCN1c2ccccc2Sc2ccccc21 [Promazine, reference compound]", "displayUnit": "×10⁻⁶ cm/s", "Papp at 2.75 h": 24.2}
{"molecule": "CNCCCN1c2ccccc2CCc2ccccc21 [Desipramine, reference compound]", "displayUnit": "×10⁻⁶ cm/s", "Papp at 2.75 h": 36.5}
